- assayed_system: Human M4 (Homo sapiens)
- Construct: expressed in transfected cells
- method: mAChR M4 cell-based functional assay (calcium flux, potentiation of EC20 acetylcholine response), hM4-Gqi5 CHO-K1 cells
reported_property: EC50 (nM)

{"smiles_repr": "COc1ncc(-c2cnc3c(c2)CN(c2nn4cnnc4c(C)c2C)CC3)cc1F", "reported_property": "EC50", "unit_string": "nM", "quantitative_readout": 587}

---

- assayed_system: Human M4 (Homo sapiens, UniProt P08173)
- Construct: expressed in transfected cells
- Sequence (P08173 whole entry): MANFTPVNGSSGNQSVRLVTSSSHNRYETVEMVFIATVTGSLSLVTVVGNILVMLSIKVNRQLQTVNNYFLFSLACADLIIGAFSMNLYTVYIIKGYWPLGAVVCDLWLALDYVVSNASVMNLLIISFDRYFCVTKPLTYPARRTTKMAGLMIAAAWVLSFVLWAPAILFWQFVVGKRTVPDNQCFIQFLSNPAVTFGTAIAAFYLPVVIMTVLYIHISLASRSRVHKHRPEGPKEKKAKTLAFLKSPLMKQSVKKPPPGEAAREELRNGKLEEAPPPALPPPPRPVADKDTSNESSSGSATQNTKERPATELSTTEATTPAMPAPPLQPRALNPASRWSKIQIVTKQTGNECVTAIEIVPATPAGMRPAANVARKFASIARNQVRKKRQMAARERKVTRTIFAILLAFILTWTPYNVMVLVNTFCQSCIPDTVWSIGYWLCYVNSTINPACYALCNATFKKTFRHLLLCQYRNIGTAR
- method: mAChR M4 cell-based functional assay (calcium flux, potentiation of EC20 acetylcholine response), hM4-Gqi5 CHO-K1 cells
- assay_conditions: CHO-K1; % ACh maximum at 30 μM; human M4; read-out: Emax
I'd appreciate it if you marked entries yes when Emax at 30 µM is lower than 90% and no when it is not.

{"compound": "Cc1nn(C)cc1-c1cnc2c(c1)CN(c1nn3c(C)nnc3c(C)c1C)CC2 [Compound 88]", "answer_label": "no"}
{"compound": "[2H]c1nnc2c(C)c(C)c(N3CCc4ncc(Nc5cc(F)ccc5F)cc4C3)nn12 [Compound 72]", "answer_label": "no"}
{"compound": "Cc1c(N2CCc3ncc(-c4cc(-c5ccccc5)no4)cc3C2)nn2cnnc2c1C [Compound 132]", "answer_label": "yes"}
{"compound": "Cc1cc2nncn2nc1N1CCc2ncc(-c3cnn(C4CCNCC4)c3)cc2C1 [Compound 149]", "answer_label": "no"}
{"compound": "Cc1c(N2CCc3ncc(-c4cncc(C#N)c4)cc3C2)nn2cnnc2c1C [Compound 40]", "answer_label": "yes"}
{"compound": "Cc1ccc(Nc2cnc3c(c2)CN(c2nn4cnnc4c(C)c2C)CC3)c(F)n1 [Compound 81]", "answer_label": "no"}
{"compound": "Cc1c(N2CCc3ncc(Nc4cccc(Cl)c4F)cc3C2)nn2cnnc2c1C [Compound 67]", "answer_label": "yes"}
{"compound": "[2H]c1nnc2c(C)c(C)c(N3CCc4ncc(-c5cn(C)nc5C)cc4C3)nn12 [Compound 76]", "answer_label": "no"}
{"compound": "Cc1c(N2CCc3ncc(Nc4ccc(F)cc4F)cc3C2)nn2cnnc2c1C [Compound 70]", "answer_label": "no"}
{"compound": "Cc1c(N2CCc3ncc(C(=O)NCc4ccc(C(C)(C)O)cc4)cc3C2)nn2cnnc2c1C [Compound 115]", "answer_label": "yes"}
{"compound": "Cc1c(N2CCc3ncc(Nc4cc(F)ccc4F)cc3C2)nn2c(C)nnc2c1C [Compound 84]", "answer_label": "no"}
{"compound": "Cc1c(N2CCc3ncc(Nc4cc(F)ccc4F)cc3C2)nn2cnnc2c1C [Compound 32]", "answer_label": "no"}
{"compound": "Cc1c(N2CCc3ncc(Oc4ccc5c(c4)OCCO5)cc3C2)nn2cnnc2c1C [Compound 7]", "answer_label": "yes"}
{"compound": "Cc1ncc(-c2cnc3c(c2)CN(c2nn4cnnc4c(C)c2C)CC3)s1 [Compound 60]", "answer_label": "yes"}
